- Tested on: CEM cells HIV-1 protection, formazan growth assay
- protocolNotes: NCI AIDS Antiviral Assay
- particulars: measured here: growth of uninfected CEM cells
parameterMeasured: IC50

Incoming: Find the recorded IC50 belonging to Clc1cccc(C2N3CCCCC3[C@@H]3c4[nH]c5ccccc5c4CCN23)c1 (stereo partly drawn) and report it.
Outgoing: > 13.8 µM

Incoming: Lookup COc1cc(Cc2cnc(N)nc2N)cc(OC)c1OC
Outgoing: > 200 µM

Incoming: Lookup O=C1/C(=C\c2cccc(Oc3ccccc3)c2)S(=O)(=O)C(c2ccccc2)N1Cc1ccccc1 (stereo not drawn)
Outgoing: > 20 µM

Incoming: Lookup O=c1ccc(=O)n(CO)[nH]1
Outgoing: 97.7 µM

Incoming: Lookup O=C(OCCN1CCOCC1)C1C[C@@H](O)CN1C(=O)c1ccc2c(c1)OCO2 (stereo partly drawn)
Outgoing: > 200 µM

Incoming: Lookup COC(=O)/C(=C(/C)c1ccco1)P(=O)(OC)OC
Outgoing: > 200 µM

Incoming: Lookup CC(C)=C1C2C(C13C(=O)OC(C)(C)OC3=O)C2(C)C (stereo not drawn)
Outgoing: > 490 µM

Incoming: Lookup CC1=C(C(=O)Nc2cccc(C(F)(F)F)c2)C(c2ccc(O)cc2)C(C(=O)Nc2cccc(C(F)(F)F)c2)=C(C)N1
Outgoing: > 32.4 µM

Incoming: Lookup CC(=O)OCC1OC(n2c(-c3ccc(N)cc3)cc(-c3ccco3)c(C#N)c2=O)C(OC(C)=O)C(OC(C)=O)C1OC(C)=O (stereo not drawn)
Outgoing: > 11.7 µM

Incoming: Lookup O=C(Nc1ccc(Cl)cc1Cl)C1C(=O)OC2(CCCCC2)OC1=O
Outgoing: 13.8 µM

Incoming: Lookup FC1(F)[Se]C2C3CCC(C3)C2C1(F)F (stereo not drawn)
Outgoing: > 200 µM

Incoming: Lookup COC(=O)/C(=N\NC(N)=O)C(C#N)c1ccccc1 (stereo not drawn)
Outgoing: > 692 µM

Incoming: Lookup [O-][n+]1c2ccccc2cc2c1c1ccccc1n2O
Outgoing: > 20.9 µM

Incoming: Lookup O=C1N[C@@H]2c3c(Br)sc(Br)c3C(=O)[C@@H]2O1
Outgoing: 0.759 µM

Incoming: Lookup CCCCNC(=O)C1=C(C)NC(C)=C(C(=O)NCCCC)C1
Outgoing: > 200 µM

Incoming: Lookup O=C(O)CSc1n[nH]c(-c2ccccc2)n1
Outgoing: 7.59 µM

Incoming: Lookup CC1(C)NC(c2ccccc2)c2ccsc2-n2cccc21 (stereo not drawn)
Outgoing: > 100 µM

Incoming: Lookup C/C=C/CCC1CCCCN(C(=O)OC(C)(C)C)C1OCC (stereo not drawn)
Outgoing: > 60.3 µM

Incoming: Lookup O=C1C(Cl)C(c2ccc(Cl)cc2)N1n1cnc2ccccc2c1=O (stereo not drawn)
Outgoing: > 18.6 µM

Incoming: Lookup O=S(=O)(Nc1nc2ccccc2n1S(=O)(=O)c1ccccc1)c1ccccc1
Outgoing: 97.7 µM

Incoming: Lookup COC1=CC(=O)C2[C@H]3Cc4ccccc4[C@H]3C2(C)C1=O (stereo partly drawn)
Outgoing: > 51.3 µM

Incoming: Lookup COC(=O)/C=C\COCC1C2CCC(=O)C21 (stereo not drawn)
Outgoing: 28.2 µM

Incoming: Lookup O=[N+]([O-])O
Outgoing: > 200 µM

----------
- System: CEM cells HIV-1 protection, formazan growth assay
- protocolNotes: NCI AIDS Antiviral Assay
Activity calls are given as the source filed them.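 The calls were made as follows: active = compounds giving half or more protection of infected cells from virus-caused growth loss, again on retest; inactive = the rest.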
Just give me one of these, please: active, inactive

Incoming: Each compound tested received a call. Report the one for O=C(O)CN=c1c2ccccc2n(O)c2ccccc12 .
Outgoing: inactive

Incoming: Lookup N#CCC(=O)N/N=C1/C(=O)N(c2ccc(Cl)cc2)C(=O)C(=O)C1c1nc2ccccc2s1 (stereo not given)
Outgoing: inactive

Incoming: Lookup COc1ccc(-c2cc3ccccc3[nH]c2=O)cc1OC
Outgoing: inactive

Incoming: Lookup CCOC(=O)COc1cccc2occc(=O)c12
Outgoing: inactive

Incoming: Lookup NCCCCNC(c1ccccc1)C(O)c1ccccc1 (stereo not given)
Outgoing: inactive

Incoming: Lookup COc1ccc2c(CCNC(=O)/C=C/c3ccccc3)c(C(C)=O)[nH]c2c1[N+](=O)[O-]
Outgoing: inactive

Incoming: Lookup CC(C)CC12CC3CCC(CNC1=O)C32C (stereo not given)
Outgoing: inactive

Incoming: Lookup Nc1ccc(N=Nc2ccc(N=Nc3ccc(N=Nc4cc(S(=O)(=O)O)c5ccccc5c4O)c4ccc(S(=O)(=O)O)cc34)c3ccc(S(=O)(=O)O)cc23)cc1
Outgoing: active

Incoming: Lookup CC(=O)Oc1c(C(C)C)cc2c(c1OC(C)=O)CC1(C)OC(=O)CC(C)(C)C1=CC2 (stereo not given)
Outgoing: inactive

Incoming: Lookup O=C1CCC(C(=O)O)C2=C1CCCC2 (stereo not given)
Outgoing: inactive
